- System: ryegrass, Italian (Italian ryegrass, Lolium multiflorum)
- test_summary: Test C greenhouse herbicide test, pre- and postemergence
- Type: in vivo
- condition_label: Postemergence, 250 g ai/ha; scale 0 to 100, 0 no effect, 100 complete control; 13 to 15 d
value_type: Plant response rating, Ryegrass, Italian

In [3]: df
Out[3]:
                              smiles_string  result
0    Cc1ccc(-c2c(O)c(Br)nn(C)c2=O)c2ccccc12      60
1  CCCC(=O)Oc1c(C)nn(C)c(=O)c1-c1c(C)sc2c(C)cc(C)cc12      35
2  CCC(=O)Oc1c(C)nn(C)c(=O)c1-c1c(C)sc2ccc(C)cc12      95
